Molecular target: T1, EGFRvIII-mFc (human)
T1 construct: Soluble dimeric protein
Test: SPR 37C, mAb-capture
T½ for assorted binders
State the answer as a number, implicitly in min.

[
  {
    "binder": "H1H1912N (antibody, human IgG1, V domains shown, Human IgG1 Fc; also called H2M1912N (same variable domains)) VH: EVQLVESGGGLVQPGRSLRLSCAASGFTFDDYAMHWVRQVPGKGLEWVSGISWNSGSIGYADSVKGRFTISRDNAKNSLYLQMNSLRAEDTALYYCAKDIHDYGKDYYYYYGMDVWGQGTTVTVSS VL: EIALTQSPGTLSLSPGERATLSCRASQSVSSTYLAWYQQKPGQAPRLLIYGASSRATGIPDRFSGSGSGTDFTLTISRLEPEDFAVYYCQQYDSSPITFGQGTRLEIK",
    "unit": "min",
    "T½": 12
  },
  {
    "binder": "H1H2195P (antibody, human IgG1, V domains shown, Human IgG1 Fc; also called H1H2195N) VH: QVQLVESGGGVVQPGRSRRLSCVGSGFIFSSYGMHWVRQAPGKGLEWVALIFYDGSNEYYVDSVKGRFTISRDNSKNTLYLQMNSLRAEDTAVYYCAREGYSQRYKYYFGMDVWGQGTTVTVSS VL: DIQMTQSPSSVSASVGDRVTITCRASQGISSWLAWYQQQPGKAPKLLIYAASSLQSGVPSRFSGSGSGTDFTLTISSLQPEDFATYYCQQTNSFPLTFGGGTKVEIKR",
    "unit": "min",
    "T½": 103
  },
  {
    "binder": "H1H1863N2(Fuc+) (antibody, human IgG1, V domains shown, the numerical identifier ties them; also called H1H863N2; H1H863N2(Fuc+)) VH: EVQLVESGGGLVQPGGSLRLSCAASGFPFSSYDMHWVRQATGKGLEWVSAIGTAGATYYPGSVKGRFTISRENAKNSLYLQMNSLRAGDTAVYYCARGDYVWGTYRPLFDYWGQGTLVTVSS VL: DIQLTQSPSFLSASVGDRVTITCWASQGINNYLAWYQQKPGKAPKLLIYAASTLQTGVPSRFSGSGSGTEFTLTISSLQPEDFATYYCQQLNSYPLTFGGGTKVEIK",
    "unit": "min",
    "T½": 14
  }
]

Return T½ (reported value) for this binder: H1H1913N (antibody, human IgG1, V domains shown, Human IgG1 Fc; also called H3M1913N (same variable domains)) VH: QVQLQQWGAGLLKPSETLSLTCAVYGGSFSGDYWSWIRQSPGKGLEWIGEINHSGSTNYNPSLKSRVTISIDTSKNQFSLKLSSVTAADTAVYYCARGGGDYYYGMDVWGLGTTVTVSS VL: AIQMTQSPSSLSASVGDRVTITCRASQGIGNDLGWYQQKPGKAPNLLIYATSSLQSGVPSRFSGSGSGTDFTLTISSLQPEDFATYYCLQDYNYPWTFGQGTKVEIK 37
